Kindly state MIC for each of the entries shown.
# Test system: Pseudomonas aeruginosa
# Procedure details: In vitro antibacterial activity against Pseudomonas aeruginosa MB5002 organism
# Assay type: functional

Sample C[C@@H](O)[C@H]1C(=O)N2C(C(=O)O)=C(SC(=S)N(C)c3ccccc3)[C@H](C)[C@H]12 — what was its MIC? > 25 µg/mL

Same for C[C@@H](O)[C@H]1C(=O)N2C(C(=O)O)=C(SC(=S)N3CCCCCC3)[C@H](C)[C@H]12 > 25 µg/mL

Same for C[C@@H](O)[C@H]1C(=O)N2C(C(=O)O)=C(SC(=S)N(C)C)[C@H](C)[C@H]12 25 µg/mL

Same for C[C@@H](O)[C@H]1C(=O)N2C(C(=O)O)=C(SCCNC=N)C[C@H]12 [IMIPENEM ANHYDROUS] 1.56 µg/mL

Same for C[C@@H](O)[C@H]1C(=O)N2C(C(=O)O)=C(SC(=S)N3CCC3)[C@H](C)[C@H]12 > 25 µg/mL

Same for C[C@@H](O)[C@H]1C(=O)N2C(C(=O)O)=C(SC(=S)N3CCC(O)CC3)[C@H](C)[C@H]12 > 25 µg/mL

Same for CCCN(C)C(=S)SC1=C(C(=O)O)N2C(=O)[C@H]([C@@H](C)O)[C@H]2[C@H]1C 25 µg/mL
